These entries and their values trace back to ChEMBL document CHEMBL1154971.

# assayed.target: Delta-type opioid receptor (Homo sapiens)
# Sequence (P41143 whole entry): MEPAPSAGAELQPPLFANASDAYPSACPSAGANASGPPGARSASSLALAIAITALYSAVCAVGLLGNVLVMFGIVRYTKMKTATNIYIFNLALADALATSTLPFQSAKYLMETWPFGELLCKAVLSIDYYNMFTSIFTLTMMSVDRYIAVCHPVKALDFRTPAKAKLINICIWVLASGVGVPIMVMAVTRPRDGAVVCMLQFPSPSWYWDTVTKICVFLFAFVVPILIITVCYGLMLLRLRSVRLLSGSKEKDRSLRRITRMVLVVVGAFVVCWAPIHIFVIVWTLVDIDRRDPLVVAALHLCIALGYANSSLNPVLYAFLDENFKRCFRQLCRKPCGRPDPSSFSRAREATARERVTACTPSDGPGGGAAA
# experimental.details: Displacement of [3H]DADLE from human delta opioid receptor expressed in CHO cells
pKi: −log10 of the molar value.
observed.property: pKi

Answered examples (2):
Cc1cccc(O)c1C(=O)C1=CCCN2CCC[C@H]12 : 4.85
O=C(C1=CCCN2CCC[C@@H]12)c1ccccc1O : < 3.70

Look at this molecule and give its reported pKi. Cc1cccc(O)c1C(=O)C1=CCN2CCC[C@@H]12
< 3.70

Any idea what pKi was measured for Cc1cccc(O)c1C(=O)C1=CCCCN2CCC[C@@H]12 ?
< 3.70

Need pKi, item Cc1cccc(O)c1C(=O)C1=CCCN2CCC[C@@H]12
4.03

If you can, please state the reported pKi value of COc1cccc(C)c1C(=O)C1=CCCN2CCC[C@@H]12 .
< 3.70
